system: MDA-MB-231; experiment: NCI tumour cell line growth inhibition, 48 h
Calls of active or inactive are those of the source. Cut-off read from the data, not from the text of the source: active = GI50 up to about 1.1 µM and inactive = higher.
Items are presented alongside their recorded GI50.

The examples below pair each entry with its known result.
CCOP(=O)(CC1CC(O)(CNc2cc(Cl)nc(N)n2)C1)OCC (configuration not stated); > 100 µM (inactive)
O=C(CC(O)(C(F)(F)Cl)C(F)(F)Cl)CC(O)(C(F)(F)Cl)C(F)(F)Cl; 2.05 µM (inactive)
O=C(/C=C/c1ccc(Oc2cc(C(=O)/C=C/c3ccc(O)cc3)c(O)cc2O)cc1)c1ccc(O)cc1O; 5.08 µM (inactive)
CN(C)CCNc1ccccn1; > 100 µM (inactive)
CC[C@]1(Cc2ccc(OC)c(OC)c2)C=[N+]([O-])O[C@H](OC2CCCC2(c2ccccc2)c2ccccc2)[C@@H]1OC(=O)C(C)(C)C (some centres not stated); 5.56 µM (inactive)
CC(=O)OCCOCn1cc(C=O)c2ccccc21; > 100 µM (inactive)
N#Cc1nc(-c2ccccn2)oc1N; > 100 µM (inactive)
O=S(=O)(c1cc(Cl)ccc1Cl)N1CCN(c2ccc(Cl)c(Cl)c2)CC1; > 100 µM (inactive)
COc1ccc2c(C)cc(=O)oc2c1OC; > 100 µM (inactive)
COc1ccc(C(=O)c2ccc(-n3c4ccccc4c4ccc5c(c43)C(=O)C=CC5=O)cc2)cc1; 1.94 µM (inactive)

// query Entry `CC1=C(SCCO)C(=O)c2ccccc2C1=O` has what GI50?
// result 13.7 µM (inactive)

// query Entry to check: `OC[C@H]1O[C@@H](Oc2cc(O)cc(/C=C/c3ccc(O)cc3)c2)[C@H](O)[C@@H](O)[C@@H]1O`
// result > 100 µM (inactive)
